Property: pIC50; scope: individual compounds
# system: GST-Aurora A (Homo sapiens)
# Construct: N-terminal GST fusion with full length Aurora A (1-403 amino acids)
# Sequence (O14965 1-403): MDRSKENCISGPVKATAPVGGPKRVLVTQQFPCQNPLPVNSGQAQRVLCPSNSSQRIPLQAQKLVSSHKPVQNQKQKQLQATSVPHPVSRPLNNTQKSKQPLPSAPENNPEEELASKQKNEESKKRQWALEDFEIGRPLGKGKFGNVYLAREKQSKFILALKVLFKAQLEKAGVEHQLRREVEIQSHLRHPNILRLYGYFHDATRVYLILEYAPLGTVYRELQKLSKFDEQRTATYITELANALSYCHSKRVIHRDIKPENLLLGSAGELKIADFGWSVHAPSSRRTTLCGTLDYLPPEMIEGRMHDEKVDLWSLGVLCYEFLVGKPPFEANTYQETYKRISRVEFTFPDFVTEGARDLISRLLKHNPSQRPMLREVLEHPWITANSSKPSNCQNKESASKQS
# procedure.text: Aurora A kinase biochemical mobility shift assay (Caliper LC3000 / Desktop Profiler)
# condition.info: AK A (Aurora kinase A) inhibition
pIC50: −log10 of the molar value.

[
  {
    "input.smiles": "O=C1NCc2c(Nc3ccc(NC(=O)c4ccccc4)cc3)ccnc2N1",
    "pIC50": "7.00 to 8.00"
  }
]

Lookup: Endpoint output: pIC50 of `O=C(Nc1ccc(Nc2ccnc3c2CN(c2ccccc2)C(=O)N3)cc1)c1ccc(F)cc1C(F)(F)F` . Value?
Found: 7.00 to 8.00

Lookup: # repeat for `COc1ccc(CN2Cc3c(Nc4ccc(NC(=O)c5ccc(F)cc5C(F)(F)F)cc4)ccnc3NC2=O)cc1`
Found: 6.00 to 7.00

---

# system: RON kinase (Homo sapiens)
# Construct: purchased Caliper Life Sciences
# Sequence (Q04912 25-1400): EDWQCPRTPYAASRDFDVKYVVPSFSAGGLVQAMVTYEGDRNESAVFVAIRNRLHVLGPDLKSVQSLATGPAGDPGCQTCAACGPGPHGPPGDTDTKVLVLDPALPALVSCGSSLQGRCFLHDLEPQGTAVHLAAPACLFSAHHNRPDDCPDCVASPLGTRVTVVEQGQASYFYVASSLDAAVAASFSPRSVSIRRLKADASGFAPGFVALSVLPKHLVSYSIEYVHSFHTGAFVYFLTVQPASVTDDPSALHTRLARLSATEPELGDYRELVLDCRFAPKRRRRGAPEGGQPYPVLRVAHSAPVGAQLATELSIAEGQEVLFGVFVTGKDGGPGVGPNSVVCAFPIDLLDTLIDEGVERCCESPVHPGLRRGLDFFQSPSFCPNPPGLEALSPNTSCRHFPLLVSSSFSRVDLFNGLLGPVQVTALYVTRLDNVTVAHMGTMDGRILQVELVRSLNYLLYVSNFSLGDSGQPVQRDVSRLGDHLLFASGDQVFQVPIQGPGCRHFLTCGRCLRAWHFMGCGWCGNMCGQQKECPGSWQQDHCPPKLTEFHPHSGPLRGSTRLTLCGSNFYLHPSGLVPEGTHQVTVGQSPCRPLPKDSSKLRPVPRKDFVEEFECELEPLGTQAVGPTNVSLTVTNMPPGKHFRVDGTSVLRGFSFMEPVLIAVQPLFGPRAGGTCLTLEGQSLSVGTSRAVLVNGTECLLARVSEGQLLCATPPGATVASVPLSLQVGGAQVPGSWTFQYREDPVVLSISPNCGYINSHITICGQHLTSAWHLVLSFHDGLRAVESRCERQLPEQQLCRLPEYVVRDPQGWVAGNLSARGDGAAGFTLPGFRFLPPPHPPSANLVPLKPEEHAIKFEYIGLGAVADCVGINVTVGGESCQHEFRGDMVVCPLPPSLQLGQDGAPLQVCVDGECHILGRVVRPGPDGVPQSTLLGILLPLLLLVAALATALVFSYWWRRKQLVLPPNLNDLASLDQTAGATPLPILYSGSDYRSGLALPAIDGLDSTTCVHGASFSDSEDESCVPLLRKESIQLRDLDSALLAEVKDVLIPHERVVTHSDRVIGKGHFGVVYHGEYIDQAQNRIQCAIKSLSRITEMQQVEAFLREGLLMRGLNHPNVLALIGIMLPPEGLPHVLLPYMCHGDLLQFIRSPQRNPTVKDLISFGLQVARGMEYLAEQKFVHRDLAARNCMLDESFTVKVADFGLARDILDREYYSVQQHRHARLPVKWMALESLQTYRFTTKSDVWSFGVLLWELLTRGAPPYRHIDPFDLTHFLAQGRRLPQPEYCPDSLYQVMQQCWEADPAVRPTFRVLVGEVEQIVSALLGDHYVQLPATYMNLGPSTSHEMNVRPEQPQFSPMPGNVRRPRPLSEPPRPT
# procedure.text: RON kinase biochemical mobility shift assay (Caliper Desktop Profiler)
# condition.info: RON kinase inhibition
Property: IC50; scope: individual compounds

Worked examples follow.
[
  {
    "compound": "Cc1cccc(C(=O)Nc2ccc(Oc3ccnc4c3CNC(=O)N4)c(F)c2)c1 [Example 97]",
    "IC50": "10 to 100 nM"
  },
  {
    "compound": "CCN1Cc2c(Oc3ccc(NC(=O)Nc4cc(C)cs4)cc3F)ccnc2NC1=O [Example 267]",
    "IC50": "10 to 100 nM"
  },
  {
    "compound": "CCN1Cc2c(Oc3ccc(NC(=O)Nc4ccc(Cl)nc4)cc3F)ccnc2NC1=O [Example 264]",
    "IC50": "100 to 1000 nM"
  },
  {
    "compound": "O=C(Nc1cccc(F)c1)Nc1ccc(Oc2ccnc3c2CNC(=O)N3)c(F)c1 [Example 269]",
    "IC50": "10 to 100 nM"
  }
]

Lookup: Endpoint output: IC50 of COc1cccc(C(=O)Nc2ccc(Oc3ccnc4c3CNC(=O)N4)c(F)c2)c1 [Example 96] . Value?
Found: 10 to 100 nM

Lookup: # repeat for O=C1NCc2c(Nc3ccc(OC(F)(F)F)c(Br)c3)ccnc2N1 [Example 195]
Found: 100 to 1000 nM

Lookup: # repeat for O=C1NCc2c(Oc3ccc(NS(=O)(=O)c4ccccc4F)cc3F)ccnc2N1 [Example 70]
Found: 100 to 1000 nM

Lookup: # repeat for CCN1Cc2c(Oc3ccc(NC(=O)Nc4ccc5c(c4)OCO5)cc3F)ccnc2NC1=O [Example 263]
Found: 10 to 100 nM

Lookup: # repeat for O=C1NCc2c(Oc3ccc(NC(=O)c4ccc(Br)cc4)cc3F)ccnc2N1 [Example 99]
Found: < 10 nM

Lookup: # repeat for CCN1Cc2c(Oc3ccc(NC(=O)c4cccn(-c5ccc(F)cc5)c4=O)cc3F)ccnc2NC1=O [Example 84]
Found: < 10 nM

---

# system: GST-Aurora A (Homo sapiens, UniProt O14965)
# Construct: N-terminal GST fusion with full length Aurora A (1-403 amino acids)
# procedure.text: Aurora A kinase biochemical mobility shift assay (Caliper LC3000 / Desktop Profiler)
# condition.info: AK A (Aurora kinase A) inhibition
pIC50: −log10 of the molar value.
test.readout: pIC50

[
  {
    "molecule": "O=C(CC1CC1)Nc1ccc(Nc2ccnc3c2CNC(=O)N3)cc1",
    "system": "GST-Aurora A (Homo sapiens, UniProt O14965)",
    "pIC50": "7.00 to 8.00"
  }
]

Lookup: Endpoint output: pIC50 of `O=C1NCc2c(Oc3ccc(NC(=O)c4cc(Cl)cnc4Cl)cc3F)ccnc2N1` . Value?
Found: 7.00 to 8.00

Lookup: # repeat for `COc1ccc(CN2Cc3c(Nc4ccc(NC(=O)c5ccc(F)cc5C(F)(F)F)cc4F)ccnc3NC2=O)cc1`
Found: 7.00 to 8.00

Lookup: # repeat for `O=C1NCc2c(Nc3ccc(NC(=O)c4ccccc4F)cc3F)ccnc2N1`
Found: 7.00 to 8.00

Lookup: # repeat for `O=C(CC(F)(F)F)Nc1ccc(Nc2ccnc3c2CNC(=O)N3)cc1`
Found: 6.00 to 7.00

---

Property: IC50; scope: individual compounds
# system: GST-Aurora A (Homo sapiens, UniProt O14965)
# Construct: N-terminal GST fusion with full length Aurora A (1-403 amino acids)
# Sequence (O14965 1-403): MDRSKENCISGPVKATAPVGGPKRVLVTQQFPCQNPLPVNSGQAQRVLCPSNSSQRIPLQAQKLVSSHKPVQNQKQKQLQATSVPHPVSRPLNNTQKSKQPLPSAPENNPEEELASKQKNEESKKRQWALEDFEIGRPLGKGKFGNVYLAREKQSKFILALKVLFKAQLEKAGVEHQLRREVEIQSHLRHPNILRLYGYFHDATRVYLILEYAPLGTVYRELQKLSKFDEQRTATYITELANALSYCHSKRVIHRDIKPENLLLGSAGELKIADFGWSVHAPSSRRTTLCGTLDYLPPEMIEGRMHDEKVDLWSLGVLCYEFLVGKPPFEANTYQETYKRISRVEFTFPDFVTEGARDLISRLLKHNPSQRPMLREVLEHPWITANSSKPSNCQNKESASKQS
# procedure.text: Aurora A kinase biochemical mobility shift assay (Caliper LC3000 / Desktop Profiler)
# condition.info: AK A (Aurora kinase A) inhibition

[
  {
    "compound": "COc1ccc(CN2Cc3c(Nc4ccc(NC(=O)c5ccccc5F)cc4F)ccnc3NC2=O)cc1 [Example 114]",
    "IC50": "100 to 1000 nM"
  },
  {
    "compound": "CN(C)CCN1Cc2c(Nc3ccc(NC(=O)c4ccc(F)cc4C(F)(F)F)cc3)ccnc2NC1=O [Example 11]",
    "IC50": "100 to 1000 nM"
  },
  {
    "compound": "COc1cc(CNC(=O)c2ccc(-c3ccnc4c3CNC(=O)N4)s2)ccc1F [Example 130]",
    "IC50": "10 to 100 nM"
  }
]

Now, please, on to the next compound.
Lookup: Recall the recorded IC50 for CN1Cc2c(Nc3ccc(NC(=O)c4ccccc4)cc3)ccnc2NC1=O [Example 22] with GST-Aurora A (Homo sapiens, UniProt O14965) and state it.
Found: 10 to 100 nM

---

Property: pIC50; scope: individual compounds
# system: GST-Aurora A (Homo sapiens)
# Construct: N-terminal GST fusion with full length Aurora A (1-403 amino acids)
# procedure.text: Aurora A kinase biochemical mobility shift assay (Caliper LC3000 / Desktop Profiler)
# condition.info: AK A (Aurora kinase A) inhibition
pIC50: −log10 of the molar value.

[
  {
    "input.smiles": "O=C(Nc1ccc(Nc2ccnc3c2CN(c2ccc(CN4CCCC4)cc2)C(=O)N3)cc1)c1ccc(F)cc1C(F)(F)F",
    "pIC50": "6.00 to 7.00"
  },
  {
    "input.smiles": "CCN1Cc2c(Nc3ccc(NC(=O)c4ccc(F)cc4C(F)(F)F)cc3F)ccnc2NC1=O",
    "pIC50": "> 8.00"
  },
  {
    "input.smiles": "O=C1NCc2c(Oc3ccc(NC(=O)c4cccc(Br)c4)cc3F)ccnc2N1",
    "pIC50": "7.00 to 8.00"
  },
  {
    "input.smiles": "O=C1NCc2c(Oc3ccc(NS(=O)(=O)c4ccccc4F)cc3F)ccnc2N1",
    "pIC50": "6.00 to 7.00"
  },
  {
    "input.smiles": "O=C(Nc1ccc(Nc2ccnc3c2CN(CCCN2CCCC2=O)C(=O)N3)cc1)c1ccc(F)cc1C(F)(F)F",
    "pIC50": "7.00 to 8.00"
  }
]

Lookup: Endpoint output: pIC50 of `O=C(Nc1ccc(Nc2ccnc3c2CN(CC(F)(F)F)C(=O)N3)c(F)c1)c1ccc(F)cc1C(F)(F)F` . Value?
Found: > 8.00

Lookup: # repeat for `CN1Cc2c(Nc3ccc(NC(=O)c4ccccc4F)cc3F)ccnc2NC1=O`
Found: 7.00 to 8.00

Lookup: # repeat for `O=C(Nc1ccc(Nc2ccnc3c2CN(c2ccccc2)C(=O)N3)c(F)c1)c1cccc(F)c1`
Found: 7.00 to 8.00

Lookup: # repeat for `CN1Cc2c(Nc3ccc(NC(=O)c4cccc(F)c4F)c(F)c3)ccnc2NC1=O`
Found: 7.00 to 8.00

Lookup: # repeat for `O=C(Nc1ccc(Nc2ccnc3c2CN(CC(F)(F)F)C(=O)N3)cc1)c1ccccc1`
Found: 7.00 to 8.00

Lookup: # repeat for `O=C(Nc1ccc(Nc2ccnc3c2CN(CC(F)(F)F)C(=O)N3)cc1)c1ccc(F)cc1C(F)(F)F`
Found: 7.00 to 8.00

Lookup: # repeat for `O=C(Nc1ccc(Nc2ccnc3c2CNC(=O)N3)cc1)Nc1ccc(F)cc1C(F)(F)F`
Found: 7.00 to 8.00
